Data origin: patent US20090317363A1

# target.under.test: CCR5 (UniProt P51681)
# assay.protocol: cell-based or functional assay
test.readout: CCR5 signalling (%) (% of Emax of PSC-RANTES)

>>> data_value("RANTES derivative: signature sequence SEQ ID NO: 63 fused to positions 10-68 of native RANTES (SEQ ID NO: 1) (ligand) QGPPLMSLSVCCFAYIARPLPRAHIKEYFYTSGKCSNPAVVFVTRKNRQVCANPEKKWVREYINSLEMS")
42.7
>>> data_value("RANTES derivative: signature sequence SEQ ID NO: 57 fused to positions 10-68 of native RANTES (SEQ ID NO: 1) (ligand) QGPPLMGLSVCCFAYIARPLPRAHIKEYFYTSGKCSNPAVVFVTRKNRQVCANPEKKWVREYINSLEMS")
4.9
>>> data_value("RANTES derivative: signature sequence SEQ ID NO: 65 fused to positions 10-68 of native RANTES (SEQ ID NO: 1) (ligand) QGPPLMSLQACCFAYIARPLPRAHIKEYFYTSGKCSNPAVVFVTRKNRQVCANPEKKWVREYINSLEMS")
11.5
>>> data_value("RANTES derivative: signature sequence SEQ ID NO: 48 fused to positions 10-68 of native RANTES (SEQ ID NO: 1) (ligand) QGPLSSQSQVCCFAYIARPLPRAHIKEYFYTSGKCSNPAVVFVTRKNRQVCANPEKKWVREYINSLEMS")
100
>>> data_value("RANTES derivative: signature sequence SEQ ID NO: 52 fused to positions 10-68 of native RANTES (SEQ ID NO: 1) (ligand) QGPPLMALSVCCFAYIARPLPRAHIKEYFYTSGKCSNPAVVFVTRKNRQVCANPEKKWVREYINSLEMS")
8.3
>>> data_value("RANTES derivative: signature sequence SEQ ID NO: 43 fused to positions 10-68 of native RANTES (SEQ ID NO: 1) (ligand) QGPPMQGGLSCCFAYIARPLPRAHIKEYFYTSGKCSNPAVVFVTRKNRQVCANPEKKWVREYINSLEMS")
0.3
>>> data_value("RANTES derivative: signature sequence SEQ ID NO: 28 fused to positions 10-68 of native RANTES (SEQ ID NO: 1) (ligand) QGPPGSWSSVCCFAYIARPLPRAHIKEYFYTSGKCSNPAVVFVTRKNRQVCANPEKKWVREYINSLEMS")
45
>>> data_value("RANTES derivative: signature sequence SEQ ID NO: 8 fused to positions 10-68 of native RANTES (SEQ ID NO: 1) (ligand) QGPPLMWMQSCCFAYIARPLPRAHIKEYFYTSGKCSNPAVVFVTRKNRQVCANPEKKWVREYINSLEMS")
2.5
>>> data_value("RANTES derivative: signature sequence SEQ ID NO: 19 fused to positions 10-68 of native RANTES (SEQ ID NO: 1) (ligand) QGPPGDGGSVCCFAYIARPLPRAHIKEYFYTSGKCSNPAVVFVTRKNRQVCANPEKKWVREYINSLEMS")
85.1
